# Test system: Phytophthora infestans
# Experimental details: microbe, parasite or virus in culture
# Format: cell-based
# Condition notes: Phytophthora infestans, read-out: Observed activity (%)
Entries and their inhibition at 1 µg/mL values follow.
Give a bare numeral; the unit % is implied.

Answered examples (3):
{"Molecule": "Cc1nc2ncnn2c(N)c1-c1ccc(C(C)(C)C)cc1", "inhibition at 1 µg/mL / %": 45}
{"Molecule": "CCCCCCCCc1c(CC)nc2ncnn2c1N", "inhibition at 1 µg/mL / %": 59}
{"Molecule": "CCCCCCCCc1c(C)nc2ncnn2c1N", "inhibition at 1 µg/mL / %": 13}

Query: Give inhibition at 1 µg/mL for CC(C)(C)C(O)(CCc1ccc(Cl)cc1)Cn1cncn1 (stereo not drawn)
Reply: 8

Query: Give inhibition at 1 µg/mL for `COCC(=O)N(c1c(C)cccc1C)N1CCOC1=O`
Reply: 0

Query: Give inhibition at 1 µg/mL for `O=C1c2ccccc2C(=O)N1SC(Cl)(Cl)Cl`
Reply: 6
